B1: FBF1 (parent)
chain: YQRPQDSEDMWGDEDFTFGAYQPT

variants of: B1; test: protein stability index of a GFP-peptide fusion (GPS, HEK-293T) (PSI 1-6); higher = more stable; conditions: c terminus: a fixed tail appended;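 also: lentivirally expressed fusions sorted by FACS into six bins by GFP to DsRed ratio, PSI derived from sequencing read proportions per bin multiplied by bin number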
Criterion: protein stability index meeting or surpassing 3. Met: Condition met. Not met: Condition not met.

Example entries and their recorded answers appear below.
E14N = Condition not met
G19Y = Condition not met
M10D = Condition met
A20I = Condition not met
Y1A = Condition met
Q2S = Condition met
D9T = Condition not met
D9F = Condition not met
D15F = Condition not met
D15Y = Condition not met

Request: Is protein stability index for P4I at or above 3?
Result: Condition not met

Request: Is protein stability index for D15I at or above 3?
Result: Condition not met

Request: Is protein stability index for D15H at or above 3?
Result: Condition not met

Request: Is protein stability index for E8F at or above 3?
Result: Condition not met
